Would you mind telling me the reported pEC50 of each entry?
- assayed system: S1P1 (Homo sapiens, UniProt P21453)
- Sequence (P21453 whole entry, species assumed): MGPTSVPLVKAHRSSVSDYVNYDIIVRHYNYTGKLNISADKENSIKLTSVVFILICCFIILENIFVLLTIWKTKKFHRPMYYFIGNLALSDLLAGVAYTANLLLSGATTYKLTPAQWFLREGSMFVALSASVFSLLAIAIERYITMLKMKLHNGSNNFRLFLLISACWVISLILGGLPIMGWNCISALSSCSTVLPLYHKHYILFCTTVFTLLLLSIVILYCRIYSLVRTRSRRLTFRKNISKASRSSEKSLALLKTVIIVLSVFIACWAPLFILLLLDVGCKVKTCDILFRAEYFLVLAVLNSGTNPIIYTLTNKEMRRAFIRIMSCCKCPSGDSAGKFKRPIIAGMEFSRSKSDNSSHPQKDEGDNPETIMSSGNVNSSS
- protocol description: 35S-GTPγS binding, S1P1 membranes
- measurement context: membranes from CHO cells expressing S1P1; 60 min 30° C.
Structures can show the parent of a compound that is named as a salt.
Reminder that pEC50 is minus the log10 of a molar concentration.

Prompt: Return reported pEC50; argument: `COCc1cc(-c2nc(-c3ccc(C(=O)O)c(F)c3)no2)ccc1-c1cscc1C`
Response: 7.74

Prompt: Return reported pEC50; argument: `C#CCOc1ncc(-c2nc(-c3ccc(OCC(=O)O)c(F)c3)no2)cc1Cl`
Response: 5.69

Prompt: Return reported pEC50; argument: `COCc1cc(-c2nc(-c3ccc(C(=O)O)c(F)c3)no2)ccc1OC(C)C`
Response: 6.21

Prompt: Return reported pEC50; argument: `COCc1cc(-c2nc(-c3cccc(S(N)(=O)=O)c3)no2)ccc1-c1ccccc1C`
Response: 9.15

Prompt: Return reported pEC50; argument: CCOC(=O)CC(C)NC(=O)c1ccc(-c2noc(-c3ccc(-c4ccccc4C)c(COC)c3)n2)cc1F (centres unmarked)
Response: 6.55

Prompt: Return reported pEC50; argument: `COCc1cc(-c2nc(-c3ccc(C(=O)NCCC#N)c(F)c3)no2)ccc1-c1ccccc1C`
Response: 8.22

Prompt: Return reported pEC50; argument: `COCCOCc1cccc(-c2noc(-c3ccc(-c4ccccc4C)c(COC)c3)n2)c1`
Response: 8.21

Prompt: Return reported pEC50; argument: Cc1ccccc1-c1ccc(-c2nc(-c3ccc(C(=O)O)c(F)c3)no2)cc1CN1CCOCC1 [Example 75, Trifluoroacetic acid salt]
Response: 6.74

* * *

- assayed system: UniProtKB Q99500
- Sequence (Q99500 whole entry, species assumed): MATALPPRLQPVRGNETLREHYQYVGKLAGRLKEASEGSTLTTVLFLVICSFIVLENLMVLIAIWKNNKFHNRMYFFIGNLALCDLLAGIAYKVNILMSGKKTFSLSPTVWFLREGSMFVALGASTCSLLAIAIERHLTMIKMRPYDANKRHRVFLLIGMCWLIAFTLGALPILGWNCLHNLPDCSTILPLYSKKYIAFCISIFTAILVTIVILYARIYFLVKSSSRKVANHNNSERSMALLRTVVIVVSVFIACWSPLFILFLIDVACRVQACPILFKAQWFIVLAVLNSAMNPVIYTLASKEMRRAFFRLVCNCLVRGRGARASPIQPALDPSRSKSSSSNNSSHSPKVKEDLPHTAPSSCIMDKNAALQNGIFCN
- protocol description: 35S-GTPγS binding, S1P3 membranes
- measurement context: membranes from CHO cells expressing S1P3; 60 min 30° C.
Where a name gives a salt, the structure may show the parent alone.
Values of EC50 strictly less than 0.8 µM map to true (1), and values of at least 0.8 µM map to false (0).

Prompt: Dear colleague, could you confirm whether EC50 of Cc1ccccc1-c1ccc(-c2nc(-c3ccc(NCC(=O)O)c(F)c3)no2)cc1C [Example 56] falls below 0.8 µM? Thanks.
Response: false (0)

Prompt: Dear colleague, could you confirm whether EC50 of CCOCc1cc(-c2nc(-c3ccc(C(=O)O)c(F)c3)no2)ccc1-c1ccccc1C [Example 63] falls below 0.8 µM? Thanks.
Response: true (1)

Prompt: Dear colleague, could you confirm whether EC50 of COCc1cc(-c2nc(-c3ccc(C(N)=O)c(F)c3)no2)ccc1-c1ccccc1C [Example 179] falls below 0.8 µM? Thanks.
Response: true (1)

Prompt: Dear colleague, could you confirm whether EC50 of COCc1cc(-c2nc(-c3ccc(C(=O)NCCc4nnn[nH]4)c(F)c3)no2)ccc1-c1ccccc1C [Example 177] falls below 0.8 µM? Thanks.
Response: false (0)

Prompt: Dear colleague, could you confirm whether EC50 of COc1cc(-c2nc(-c3ccc(C(=O)O)c(F)c3)no2)ccc1-c1cscc1C [Example 12] falls below 0.8 µM? Thanks.
Response: false (0)

Prompt: Dear colleague, could you confirm whether EC50 of CCOC(=O)C1(NC(=O)c2ccc(-c3noc(-c4ccc(-c5ccccc5C)c(COC)c4)n3)cc2F)CC1 [Example 118] falls below 0.8 µM? Thanks.
Response: false (0)

Prompt: Dear colleague, could you confirm whether EC50 of COCc1cc(-c2nc(-c3cccc(CN(C)CC(=O)O)c3)no2)ccc1-c1ccccc1C [Example 141, Hydrochloride salt] falls below 0.8 µM? Thanks.
Response: true (1)

Prompt: Dear colleague, could you confirm whether EC50 of COCc1cc(-c2nc(-c3cccc(S(C)(=O)=O)c3)no2)ccc1-c1ccccc1C [Example 194] falls below 0.8 µM? Thanks.
Response: false (0)

Prompt: Dear colleague, could you confirm whether EC50 of COCc1cc(-c2nc(-c3cccc(CN(C)CCO)c3)no2)ccc1-c1ccccc1C [Example 186, Hydrochloride salt] falls below 0.8 µM? Thanks.
Response: false (0)

Prompt: Dear colleague, could you confirm whether EC50 of Cc1cc(-c2nc(-c3ccc(C(=O)O)c(F)c3)no2)ccc1-c1cscc1C [Example 9] falls below 0.8 µM? Thanks.
Response: false (0)

Prompt: Dear colleague, could you confirm whether EC50 of COCc1cc(-c2nc(-c3ccc(C(=O)NCCCC(=O)O)c(F)c3)no2)ccc1-c1ccccc1C [Example 127] falls below 0.8 µM? Thanks.
Response: false (0)

Prompt: Dear colleague, could you confirm whether EC50 of COc1ncccc1-c1ccc(-c2nc(-c3ccc(C(=O)O)c(F)c3)no2)cc1C [Example 28] falls below 0.8 µM? Thanks.
Response: false (0)

Prompt: Dear colleague, could you confirm whether EC50 of COCc1cc(-c2nc(-c3ccc(OCCCC(=O)O)c(F)c3)no2)ccc1-c1ccccc1C [Example 168] falls below 0.8 µM? Thanks.
Response: true (1)

Prompt: Dear colleague, could you confirm whether EC50 of COCc1cc(-c2nc(-c3ccc(F)c(CN(C)CC(=O)O)c3)no2)ccc1-c1ccccc1C [Example 146, Hydrochloride salt] falls below 0.8 µM? Thanks.
Response: true (1)

Prompt: Dear colleague, could you confirm whether EC50 of CC1CCCCN1c1ccc(-c2nc(-c3ccc(C(=O)O)c(F)c3)no2)cc1C#N (stereo not shown) [Example 29] falls below 0.8 µM? Thanks.
Response: false (0)

Prompt: Dear colleague, could you confirm whether EC50 of CCc1ccccc1-c1ccc(-c2nc(-c3ccc(F)c(CN(C)CC(=O)O)c3)no2)cc1COC [Example 147, Hydrochloride salt] falls below 0.8 µM? Thanks.
Response: true (1)

Prompt: Dear colleague, could you confirm whether EC50 of COCc1cc(-c2nc(-c3cccc(C(=O)O)c3)no2)ccc1-c1ccccc1C [Example 92] falls below 0.8 µM? Thanks.
Response: false (0)

Prompt: Dear colleague, could you confirm whether EC50 of CC1CCCCN1c1ccc(-c2nc(-c3ccc(OCC(=O)O)c(F)c3)no2)cc1C(F)(F)F (stereo not shown) [Example 47] falls below 0.8 µM? Thanks.
Response: false (0)

Prompt: Dear colleague, could you confirm whether EC50 of CC(C)Oc1ncc(-c2nc(-c3ccc(OCC(=O)O)c(F)c3)no2)cc1Cl [Example 53] falls below 0.8 µM? Thanks.
Response: false (0)

Prompt: Dear colleague, could you confirm whether EC50 of COCc1cc(-c2nc(-c3cc(F)c(C(=O)O)cc3F)no2)ccc1-c1ccccc1C [Example 97] falls below 0.8 µM? Thanks.
Response: false (0)

Prompt: Dear colleague, could you confirm whether EC50 of Cc1ccccc1-c1ccc(-c2nc(-c3ccc(C(=O)O)c(Cl)c3)no2)cc1C [Example 68] falls below 0.8 µM? Thanks.
Response: false (0)

Prompt: Dear colleague, could you confirm whether EC50 of COCc1cc(-c2nc(-c3ccc(C(=O)NCCC(=O)O)c(F)c3)no2)ccc1-c1ccccc1C [Example 119] falls below 0.8 µM? Thanks.
Response: true (1)

Prompt: Dear colleague, could you confirm whether EC50 of COCc1cc(-c2nc(-c3ccc(C(=O)O)c(F)c3)no2)ccc1-c1cscc1C [Example 93] falls below 0.8 µM? Thanks.
Response: false (0)

Prompt: Dear colleague, could you confirm whether EC50 of COCc1cc(-c2nc(-c3ccc(C(=O)O)c(F)c3)no2)ccc1-c1ccccc1C(F)(F)F [Example 86] falls below 0.8 µM? Thanks.
Response: false (0)

Prompt: Dear colleague, could you confirm whether EC50 of CCc1ccccc1-c1ccc(-c2nc(-c3cccc(CN(C)CC(=O)O)c3)no2)cc1COC [Example 143, hydrochloride salt] falls below 0.8 µM? Thanks.
Response: true (1)

Prompt: Dear colleague, could you confirm whether EC50 of Cc1ccccc1-c1ccc(-c2nc(-c3ccc(C(=O)NCC(=O)O)c(F)c3)no2)cc1C [Example 54] falls below 0.8 µM? Thanks.
Response: false (0)

Prompt: Dear colleague, could you confirm whether EC50 of COCc1cc(-c2nc(-c3cccc(CNC4(C(=O)O)CC4)c3)no2)ccc1-c1ccccc1C [Example 151] falls below 0.8 µM? Thanks.
Response: true (1)

Prompt: Dear colleague, could you confirm whether EC50 of Cc1cscc1-c1ccc(-c2nc(-c3ccc(C(=O)O)c(F)c3)no2)cc1C(F)(F)F [Example 23] falls below 0.8 µM? Thanks.
Response: false (0)

Prompt: Dear colleague, could you confirm whether EC50 of CC1CCCCN1c1ccc(-c2nc(-c3ccc(C(=O)O)c(F)c3)no2)cc1C(F)(F)F (stereo not shown) [Example 19] falls below 0.8 µM? Thanks.
Response: false (0)

Prompt: Dear colleague, could you confirm whether EC50 of Cc1ccccc1-c1ccc(-c2nc(-c3ccc(C(=O)O)c(F)c3)no2)cc1COC(C)C [Example 59] falls below 0.8 µM? Thanks.
Response: true (1)

Prompt: Dear colleague, could you confirm whether EC50 of COCc1cc(-c2nc(-c3cccc(C(=O)NCCC#N)c3)no2)ccc1-c1ccccc1C [Example 183] falls below 0.8 µM? Thanks.
Response: false (0)

Origin of measurements: patent US8202865B2
